Origin of values: patent US20220339227A1

# test-summary: Pharmacokinetic study in rats: dry powder insufflation of TFF-CBD and intravenous CBD solution
# Type: in vivo
# conditions: plasma; intravenous solution 10 mg/kg, rat, n=5, 1 h; read-out: Cannabidiol concentration in rat plasma, Intravenous
measured-attribute: concentration at 1 h
Express the reported value numerically, then name its unit.

INPUT: Name the recorded concentration at 1 h for C=C(C)[C@@H]1CCC(C)=C[C@H]1c1c(O)cc(CCCCC)cc1O [Cannabidiol] .
OUTPUT: 601 ng/mL

---

# test-summary: Pharmacokinetic study in rats: dry powder insufflation of TFF-CBD and intravenous CBD solution
# Format: in vivo
# conditions: plasma; intravenous solution 10 mg/kg, rat, n=5, 0.25 h; read-out: Cannabidiol concentration in rat plasma, Intravenous
measured-attribute: concentration at 0.25 h (ng/mL)
Just the number in ng/mL, nothing appended.

INPUT: Name the recorded concentration at 0.25 h for C=C(C)[C@@H]1CCC(C)=C[C@H]1c1c(O)cc(CCCCC)cc1O [Cannabidiol] .
OUTPUT: 1770
